The measurements presented in this section are drawn from paper PMC2692545.

Measured EC50 values are reported for all entries that follow.
molecular target: C1/C2 + Gsα (VC1:IIC2 plus Gsα-GTPγS) (Canis lupus familiaris; Rattus norvegicus; Bos taurus, UniProt P26769+P30803); experiment: […]cAMP formation from [α-32P]ATP, stimulation of catalysis
Sequence (P30803 442-656): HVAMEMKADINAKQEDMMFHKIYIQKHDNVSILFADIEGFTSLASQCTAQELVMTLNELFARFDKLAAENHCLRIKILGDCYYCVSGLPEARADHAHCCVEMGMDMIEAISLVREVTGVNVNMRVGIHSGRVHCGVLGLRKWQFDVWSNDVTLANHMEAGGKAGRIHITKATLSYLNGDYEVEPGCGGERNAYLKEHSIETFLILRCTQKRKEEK
Sequence (P26769 870-1081): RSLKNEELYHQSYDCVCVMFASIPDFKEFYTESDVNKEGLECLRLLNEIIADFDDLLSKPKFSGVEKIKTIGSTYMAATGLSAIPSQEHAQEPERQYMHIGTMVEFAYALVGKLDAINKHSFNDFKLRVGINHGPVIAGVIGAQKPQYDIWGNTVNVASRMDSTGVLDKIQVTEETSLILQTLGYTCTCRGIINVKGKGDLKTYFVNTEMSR
Sequence (P04896 2-394 partner): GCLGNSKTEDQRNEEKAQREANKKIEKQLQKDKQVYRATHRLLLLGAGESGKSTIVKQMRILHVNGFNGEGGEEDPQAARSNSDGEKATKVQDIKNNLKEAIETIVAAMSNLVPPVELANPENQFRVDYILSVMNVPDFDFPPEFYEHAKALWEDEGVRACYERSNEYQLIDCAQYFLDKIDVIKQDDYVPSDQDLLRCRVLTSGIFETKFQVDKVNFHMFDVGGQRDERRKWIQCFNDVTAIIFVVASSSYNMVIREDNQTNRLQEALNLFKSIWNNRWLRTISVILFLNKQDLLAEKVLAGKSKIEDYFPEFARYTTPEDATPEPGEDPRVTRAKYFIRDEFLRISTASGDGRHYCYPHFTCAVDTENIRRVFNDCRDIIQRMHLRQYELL
Please reply with the bare figure in µM and do not write the unit itself.

Some solved cases for reference:
COMPOUND	EC50 / µM
C=C[C@@]1(C)CC(=O)[C@]2(O)[C@@]3(C)[C@@H](O)CCC(C)(C)[C@@H]3[C@H](OC(C)=O)[C@H](O)[C@@]2(C)O1 [6A7DA-FS]	2.6
C=C[C@@]1(C)CC(=O)[C@]2(O)[C@@]3(C)[C@@H](O)CCC(C)(C)[C@@H]3[C@H](O)[C@H](OC(C)=O)[C@@]2(C)O1 [FS]	7.4
C=C[C@@]1(C)CC(=O)[C@]2(O)[C@@]3(C)[C@@H](O)CCC(C)(C)[C@@H]3[C@H](O)[C@H](OC(=O)CCCN3CCN(C)CC3)[C@@]2(C)O1 [DMB-FS]	27.6

Note: attention shifts to another entry.
Any idea what its EC50 is? The compound is C=C[C@@]1(C)CC(=O)[C@H]2[C@](C)(O1)[C@@H](OC(C)=O)[C@@H](O)[C@H]1C(C)(C)CC[C@H](O)[C@@]12C [9d-FS] 19.5
